- experimentalSetup: in acetonitrile, 285.65 K
reportedMetric: solubility (mole fraction)
Lab note: record just the number, no unit beside it.

// query What does the data say about its solubility (mole fraction)? Entry: CC(C)(C)C(O)(CCc1ccc(Cl)cc1)Cn1cncn1 (stereo unspecified)
// result 0.00746

* * *

- experimentalSetup: in isopropanol, 285.65 K
reportedMetric: solubility (mole fraction)
Lab note: record just the number, no unit beside it.

// query What does the data say about its solubility (mole fraction)? Entry: CC(C)(C)C(O)(CCc1ccc(Cl)cc1)Cn1cncn1 (stereo unspecified)
// result 0.0138

* * *

- experimentalSetup: in ethanol, 290.65 K
reportedMetric: solubility (mole fraction)
Lab note: record just the number, no unit beside it.

// query What does the data say about its solubility (mole fraction)? Entry: CC(C)(C)C(O)(CCc1ccc(Cl)cc1)Cn1cncn1 (stereo unspecified)
// result 0.0203

* * *

- experimentalSetup: in acetonitrile, 283.15 K
reportedMetric: solubility (mole fraction)
Lab note: record just the number, no unit beside it.

// query What does the data say about its solubility (mole fraction)? Entry: CC(C)(C)C(O)(CCc1ccc(Cl)cc1)Cn1cncn1 (stereo unspecified)
// result 0.00662

* * *

- experimentalSetup: in ethanol, 293.15 K
reportedMetric: solubility (mole fraction)
Lab note: record just the number, no unit beside it.

// query What does the data say about its solubility (mole fraction)? Entry: CC(C)(C)C(O)(CCc1ccc(Cl)cc1)Cn1cncn1 (stereo unspecified)
// result 0.0234

* * *

- experimentalSetup: in acetone, 280.65 K
reportedMetric: solubility (mole fraction)
Lab note: record just the number, no unit beside it.

// query What does the data say about its solubility (mole fraction)? Entry: CC(C)(C)C(O)(CCc1ccc(Cl)cc1)Cn1cncn1 (stereo unspecified)
// result 0.0336

* * *

- experimentalSetup: in ethyl acetate, 285.65 K
reportedMetric: solubility (mole fraction)
Lab note: record just the number, no unit beside it.

// query What does the data say about its solubility (mole fraction)? Entry: CC(C)(C)C(O)(CCc1ccc(Cl)cc1)Cn1cncn1 (stereo unspecified)
// result 0.0336

* * *

- experimentalSetup: in methanol, 298.15 K
reportedMetric: solubility (mole fraction)
Lab note: record just the number, no unit beside it.

// query What does the data say about its solubility (mole fraction)? Entry: CC(C)(C)C(O)(CCc1ccc(Cl)cc1)Cn1cncn1 (stereo unspecified)
// result 0.04

* * *

- experimentalSetup: in ethyl acetate, 303.15 K
reportedMetric: solubility (mole fraction)

// query What does the data say about its solubility (mole fraction)? Entry: CC(C)(C)C(O)(CCc1ccc(Cl)cc1)Cn1cncn1 (stereo unspecified)
// result 0.0668

* * *

- experimentalSetup: in toluene, 285.65 K
reportedMetric: solubility (mole fraction)

// query What does the data say about its solubility (mole fraction)? Entry: CC(C)(C)C(O)(CCc1ccc(Cl)cc1)Cn1cncn1 (stereo unspecified)
// result 0.0311

* * *

- experimentalSetup: in toluene, 303.15 K
reportedMetric: solubility (mole fraction)
Lab note: record just the number, no unit beside it.

// query What does the data say about its solubility (mole fraction)? Entry: CC(C)(C)C(O)(CCc1ccc(Cl)cc1)Cn1cncn1 (stereo unspecified)
// result 0.0712

* * *

- experimentalSetup: in ethyl acetate, 300.65 K
reportedMetric: solubility (mole fraction)

// query What does the data say about its solubility (mole fraction)? Entry: CC(C)(C)C(O)(CCc1ccc(Cl)cc1)Cn1cncn1 (stereo unspecified)
// result 0.0612

* * *

- experimentalSetup: in ethanol, 300.65 K
reportedMetric: solubility (mole fraction)
Lab note: record just the number, no unit beside it.

// query What does the data say about its solubility (mole fraction)? Entry: CC(C)(C)C(O)(CCc1ccc(Cl)cc1)Cn1cncn1 (stereo unspecified)
// result 0.0333

* * *

- experimentalSetup: in acetonitrile, 278.15 K
reportedMetric: solubility (mole fraction)
Lab note: record just the number, no unit beside it.

// query What does the data say about its solubility (mole fraction)? Entry: CC(C)(C)C(O)(CCc1ccc(Cl)cc1)Cn1cncn1 (stereo unspecified)
// result 0.00516

* * *

- experimentalSetup: in acetone, 285.65 K
reportedMetric: solubility (mole fraction)
Lab note: record just the number, no unit beside it.

// query What does the data say about its solubility (mole fraction)? Entry: CC(C)(C)C(O)(CCc1ccc(Cl)cc1)Cn1cncn1 (stereo unspecified)
// result 0.0416

* * *

- experimentalSetup: in ethyl acetate, 293.15 K
reportedMetric: solubility (mole fraction)
Lab note: record just the number, no unit beside it.

// query What does the data say about its solubility (mole fraction)? Entry: CC(C)(C)C(O)(CCc1ccc(Cl)cc1)Cn1cncn1 (stereo unspecified)
// result 0.0466

* * *

- experimentalSetup: in 2-butanone, 308.15 K
reportedMetric: solubility (mole fraction)

// query What does the data say about its solubility (mole fraction)? Entry: CC(C)(C)C(O)(CCc1ccc(Cl)cc1)Cn1cncn1 (stereo unspecified)
// result 0.0987

* * *

- experimentalSetup: in n-propanol, 290.65 K
reportedMetric: solubility (mole fraction)
Lab note: record just the number, no unit beside it.

// query What does the data say about its solubility (mole fraction)? Entry: CC(C)(C)C(O)(CCc1ccc(Cl)cc1)Cn1cncn1 (stereo unspecified)
// result 0.0153

* * *

- experimentalSetup: in n-propanol, 305.65 K
reportedMetric: solubility (mole fraction)
Lab note: record just the number, no unit beside it.

// query What does the data say about its solubility (mole fraction)? Entry: CC(C)(C)C(O)(CCc1ccc(Cl)cc1)Cn1cncn1 (stereo unspecified)
// result 0.0338

* * *

- experimentalSetup: in isopropanol, 290.65 K
reportedMetric: solubility (mole fraction)
Lab note: record just the number, no unit beside it.

// query What does the data say about its solubility (mole fraction)? Entry: CC(C)(C)C(O)(CCc1ccc(Cl)cc1)Cn1cncn1 (stereo unspecified)
// result 0.018

* * *

- experimentalSetup: in ethanol, 308.15 K
reportedMetric: solubility (mole fraction)
Lab note: record just the number, no unit beside it.

// query What does the data say about its solubility (mole fraction)? Entry: CC(C)(C)C(O)(CCc1ccc(Cl)cc1)Cn1cncn1 (stereo unspecified)
// result 0.0463

* * *

- experimentalSetup: in isopropanol, 278.15 K
reportedMetric: solubility (mole fraction)
Lab note: record just the number, no unit beside it.

// query What does the data say about its solubility (mole fraction)? Entry: CC(C)(C)C(O)(CCc1ccc(Cl)cc1)Cn1cncn1 (stereo unspecified)
// result 0.00877

* * *

- experimentalSetup: in isopropanol, 293.15 K
reportedMetric: solubility (mole fraction)
Lab note: record just the number, no unit beside it.

// query What does the data say about its solubility (mole fraction)? Entry: CC(C)(C)C(O)(CCc1ccc(Cl)cc1)Cn1cncn1 (stereo unspecified)
// result 0.0204

* * *

- experimentalSetup: in acetone, 295.65 K
reportedMetric: solubility (mole fraction)
Lab note: record just the number, no unit beside it.

// query What does the data say about its solubility (mole fraction)? Entry: CC(C)(C)C(O)(CCc1ccc(Cl)cc1)Cn1cncn1 (stereo unspecified)
// result 0.0613

* * *

- experimentalSetup: in acetone, 305.65 K
reportedMetric: solubility (mole fraction)

// query What does the data say about its solubility (mole fraction)? Entry: CC(C)(C)C(O)(CCc1ccc(Cl)cc1)Cn1cncn1 (stereo unspecified)
// result 0.0851

* * *

- experimentalSetup: in methanol, 308.15 K
reportedMetric: solubility (mole fraction)
Lab note: record just the number, no unit beside it.

// query What does the data say about its solubility (mole fraction)? Entry: CC(C)(C)C(O)(CCc1ccc(Cl)cc1)Cn1cncn1 (stereo unspecified)
// result 0.06

* * *

- experimentalSetup: in methanol, 290.65 K
reportedMetric: solubility (mole fraction)
Lab note: record just the number, no unit beside it.

// query What does the data say about its solubility (mole fraction)? Entry: CC(C)(C)C(O)(CCc1ccc(Cl)cc1)Cn1cncn1 (stereo unspecified)
// result 0.0284

* * *

- experimentalSetup: in methanol, 293.15 K
reportedMetric: solubility (mole fraction)
Lab note: record just the number, no unit beside it.

// query What does the data say about its solubility (mole fraction)? Entry: CC(C)(C)C(O)(CCc1ccc(Cl)cc1)Cn1cncn1 (stereo unspecified)
// result 0.032

* * *

- experimentalSetup: in isopropanol, 300.65 K
reportedMetric: solubility (mole fraction)
Lab note: record just the number, no unit beside it.

// query What does the data say about its solubility (mole fraction)? Entry: CC(C)(C)C(O)(CCc1ccc(Cl)cc1)Cn1cncn1 (stereo unspecified)
// result 0.0293

* * *

- experimentalSetup: in 2-butanone, 303.15 K
reportedMetric: solubility (mole fraction)

// query What does the data say about its solubility (mole fraction)? Entry: CC(C)(C)C(O)(CCc1ccc(Cl)cc1)Cn1cncn1 (stereo unspecified)
// result 0.0869

* * *

- experimentalSetup: in toluene, 288.15 K
reportedMetric: solubility (mole fraction)
Lab note: record just the number, no unit beside it.

// query What does the data say about its solubility (mole fraction)? Entry: CC(C)(C)C(O)(CCc1ccc(Cl)cc1)Cn1cncn1 (stereo unspecified)
// result 0.0354

* * *

- experimentalSetup: in 2-butanone, 283.15 K
reportedMetric: solubility (mole fraction)
Lab note: record just the number, no unit beside it.

// query What does the data say about its solubility (mole fraction)? Entry: CC(C)(C)C(O)(CCc1ccc(Cl)cc1)Cn1cncn1 (stereo unspecified)
// result 0.0476
